# PROTOCOL DESCRIPTION: CREB reporter modulators without forskolin, primary screen, cell-based, PC12, CRE-LacZ reporter, unstimulated (AID 1145)
# CONDITION LABEL: no forskolin, luminescence, 4.5 h, higher = more signal, called active from +8 up or from −8 down
Hi there, I'd appreciate the recorded z-score for every entry that follows.
Give bare numbers.

Example compounds with recorded z-score:
compound=C=C(COC)C(=O)CC[C@@H](OC(=O)c1ccccc1-c1ccccc1C(=O)O)c1ccccc1OCCO measured_number=2.73
compound=C[C@@]1([C@@H](NS(=O)(=O)c2cccc3cccnc23)c2ccc(-c3ccccc3)cc2)C[C@H]1C1CCCCC1 measured_number=0.583
compound=CC(C)C[C@@H]1NC(=O)[C@@H]2C[C@H](C(=O)NCCCCCNC(=O)CS)[C@H](c3ccc(O)cc3)N2C1=O measured_number=-0.809

Quick batch: z-score for everything below.
1. O=C1C[C@@](C(=O)NCC(F)(F)F)(c2ccc([N+](=O)[O-])cc2)[C@@H](c2ccc(CO)cc2I)N1CC12CC3CC(CC(C3)C1)C2
2. N#Cc1ccc(NN2C(C(O)c3ccc(B(O)O)cc3)C=CC3CN(c4ccccc4)C(=O)C32)cc1 (centres undefined)
3. O=C1NC(=O)C2C1C=CC(C(O)C(c1ccccc1)c1ccccc1)N2Nc1ccccn1 (centres undefined)
4. C=CCNC(=O)[C@H]1[C@@H]2C(=O)O[C@@H](c3ccccc3)[C@@H](c3ccccc3)N2[C@@H](c2ccc(OCCO)cc2)[C@]12C(=O)Nc1ccc(C#Cc3ccc(OC)cc3)cc12
5. Cc1ccc(S[C@]2(C(=O)NC(C)C)CC(=O)N(Cc3ccccc3)[C@@H]2c2ccc(CO)cc2)cc1

Result:
[0.558, -0.898, -0.898, 0.478, -0.295]
